protocol.details: Human HepG2 cell viability assay in 384 well format
Format: toxicity, cell-based
Design: dose 125 nL, time 70.5 hour; concentration not given beside the values
conditions.used: HepG2 cells, read-out: Inhibition
Each entry below lists one item and its recorded cytotoxicity at 70.5 h value.
parameter: cytotoxicity at 70.5 h (%)

>>> reported("CC1(C)CNC(=O)c2nc(C3CCCN(C(=O)C4CC4)C3)[nH]c2C1 (stereo not given)")
-7.49
>>> reported("c1csc(CN2CC(c3nc(-c4cnccn4)no3)C2)c1")
-4.66
>>> reported("Cn1c(N)c2c(=O)n(C)c(-c3ccc(Cl)cc3Cl)cc2c(C#N)c1=O")
-4.83
>>> reported("O=C(N[C@@H]1CCC[C@@H](n2ccnc2)[C@@H]1O)c1ccc2c(c1)CCCC2")
30.9
>>> reported("CCN1CCC(=O)N(C)Cc2cc(F)ccc21")
-8.5
>>> reported("c1ccc(OCC2C[C@@H]3[C@@H](C2)OCCN3CC2CCOCC2)nc1 (stereo not given in full)")
-0.766
>>> reported("CC(C)NC(=O)c1cc2c(s1)CCN2c1ncccn1")
3.85
>>> reported("CCn1ccnc1CN1CCCN(C(=O)c2cc(Cl)c[nH]2)CC1")
-12.8
>>> reported("Clc1ccc(CN2CCC(C3CCN(Cc4cccnc4)CC3)C2)cc1 (stereo not given)")
-2.87
>>> reported("Cc1noc(C(C)C)c1C(=O)NCCC(=O)N1CCCCC1")
-19
>>> reported("Cc1ccc(-c2nc(C(=O)N(C)CC(=O)N(C)C)cs2)c(C)c1")
20.9
>>> reported("Cc1ccc(C(N)c2cccs2)cc1 (stereo not given)")
31.8
>>> reported("CCN(CC)Cc1nnc2sc(-c3cc(C(C)C)[nH]n3)nn12")
-8.88
>>> reported("CN1C(=O)C[C@H]2[C@H]1CCN2Cc1cccc(C#N)c1")
-11.7
>>> reported("COc1c(C2CCCN2C(=O)c2ccc(C(N)=O)s2)c(C)nn1C (stereo not given)")
-7.38
